Below, each of the compounds is paired with its reported GI50 value.
# Test system: SK-MEL-5
# assayComment: NCI tumour cell line growth inhibition, 48 h
Active and inactive are the calls of the source. Cut-off read from the data, not from the text of the source: active = GI50 up to about 1.1 µM and inactive = higher.

Recorded GI50, per entry:
compound: COc1cc(C2c3cc4c(cc3[C@@H](Nc3ccc(C(=O)O)cc3)C3COC(=O)[C@H]23)OCO4)cc(OC)c1O (some centres undefined)
GI50: 12.1 µM (inactive)
//
compound: OCCNc1nc2c(N3CCCC3)nc(N3CCNCC3)nc2nc1NCc1ccccc1
GI50: 12.6 µM (inactive)
//
compound: O[C@@H]1C[C@H]2N3CC[C@@]2(c2cc4c(cc2C3)OCO4)[C@H]2O[C@@H]12
GI50: < 0.01 µM (active)
//
compound: O=C(O)c1cc2c3ccccc3nc-2c[nH]1
GI50: > 100 µM (inactive)
//
compound: CSc1c(C#N)c(O)n(-c2ccc(Cl)cc2)c(=O)c1C(C)=O
GI50: 89.1 µM (inactive)
//
compound: COc1ccc(C(=O)C#Cc2cn(C3CC(O)C(CO)O3)c(=O)[nH]c2=O)cc1 (centres undefined)
GI50: 28.4 µM (inactive)
//
compound: S=C1SCN(Cc2ccco2)CN1c1ccc(Br)cc1
GI50: 12.1 µM (inactive)
//
compound: C[C@@H]1CC2(C[C@@H](C)C3[C@@H](CC4(C)CCCC5C6=CC(O)(CC[C@]34C)OC6=CC(=O)OC5(C)C)O2)OC1=O (some centres undefined)
GI50: > 100 µM (inactive)

# input Item: CCCCCCCCCCCCCCCCCCNc1ccn(C2OC(COP(=O)(O)OCC3OC(n4ccc(NC(=O)CCCCCCCCCCCCCCCCC)nc4=O)C(OC(C)=O)C3OC(C)=O)C(OC(C)=O)C2OC(C)=O)c(=O)n1 (centres undefined) Test system: SK-MEL-5 Read-out: GI50 Value: ?
# output > 100 µM (inactive)

Numbers sourced from ChEMBL document CHEMBL1201862.
